Recorded measurements of rel. EC50 (EC50, Amatuximab/EC50, scFv), one per entry
biological target: T1, plasma-membranous human MSLN on cell lines (H226, HPAC, H292, OVCAR-3, MeT-5A) (human, UniProt Q13421 296-598); test: cELISA on H226 cells, HRP-Protein L
T1 construct: whole, on cells; also called human MSLN on H226 cells; mesothelin on target cells
Number only, in ratio; omit the unit.

# get_value(readout='rel. EC50 (EC50, Amatuximab/EC50, scFv)', item= reference anti-MSLN scFv PRO1795 (scFv, also called 54-22-H03-sc01) scFv: DIQMTQSPSSLSASVGDRVTITCQASESIGNYLAWYQQKPGKAPKLLIYSASTLASGVPSRFSGSGSGTDFTLTISSLQPEDFATYYCQSTDYGDSYIFGTGTKVTVLGGGGGSGGGGSGGGGSGGGGSEVQLVESGGGLVQPGGSLRLSCAASGISVSNDYYMCWVRQAPGKGLEWIGCISTYIGNTHYASWAKGRFTISRDNSKNTVYLQMNSLRAEDTAVYYCAKNAGYPGYRYAIDLWGQGTLVTVSS ) 0.98

Same question for anti-MSLN scFv PRO1783 (scFv, also called 54-01-G02-sc01) scFv: DIQMTQSPSSLSASVGDRVTITCQASQNIYSNLAWYQQKPGKAPKLLIYDASDLASGVPSRFSGSGSGTDFTLTISSLQPEDFATYYCQQVRSSSDIDNPFGTGTKVTVLGGGGGSGGGGSGGGGSGGGGSQVQLVESGGGLVQPGGSLRLSCAASGFSLSSYAMGWVRQAPGKGLEWIGYISTINNTYYASWAKGRFTISRDNSKNTVYLQMNSLRAEDTAVYYCAREIRSGWVDYGFSIWGQGTLVTVSS please. 0.16
